Answer each item with its documented Kd.
Molecular target: T1, human CD86-murine Ig fusion protein (human)
T1 construct: Bought (Ancell #509-820); also called hCD86-mIg
T1 chain: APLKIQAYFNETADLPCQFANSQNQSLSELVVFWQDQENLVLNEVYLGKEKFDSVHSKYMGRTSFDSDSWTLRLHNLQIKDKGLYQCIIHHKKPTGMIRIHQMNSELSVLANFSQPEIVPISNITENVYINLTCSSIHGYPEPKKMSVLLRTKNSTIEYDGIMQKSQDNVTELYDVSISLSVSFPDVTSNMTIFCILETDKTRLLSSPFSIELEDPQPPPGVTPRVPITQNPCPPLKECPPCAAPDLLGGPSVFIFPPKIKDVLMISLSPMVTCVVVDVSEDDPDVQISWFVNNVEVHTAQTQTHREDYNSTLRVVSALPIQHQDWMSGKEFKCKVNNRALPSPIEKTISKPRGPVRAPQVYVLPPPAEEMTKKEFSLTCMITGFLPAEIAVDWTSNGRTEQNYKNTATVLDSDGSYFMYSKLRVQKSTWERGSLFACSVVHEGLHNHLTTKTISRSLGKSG
Experiment: SPR Biacore, hCD86-mIg captured

Problem: Fill in the blank: the reported Kd of D3-1-IgG2 (Fc fusion) MHVAQPAVVLASSRGIASFVCEYASPGKANEIRVTVLRQAGSQVTEVCAMTYMKGDELTFLDDPSCTGTFSGNQVNLTIQGLRAADTGLYICKVELMYPPPYYLGFGNGTQIYVIDPEPCPDSDERKCCVECPPCPAPPVAGPSVFLFPPKPKDTLMISRTPEVTCVVVDVSHEDPEVQFNWYVDGVEVHNAKTKPREEQFNSTFRVVSVLTVVHQDWLNGKEYKCKVSNKGLPAPIEKTISKTKGQPREPQVYTLPPSREEMTKNQVSLTCLVKGFYPSDIAVEWESNGQPENNYKTTPPMLDSDGSFFLYSKLTVDKSRWQQGNVFSCSVMHEALHNHYTQKSLSLSPG is ____.
Solution: < 0.131 nM

Problem: What do we get for D3-25-IgG2 (Fc fusion) MHVAQPAVVLASSRGIASFVCEYESPGKANEIRVTVLRQAGSQVTEVCAMTYMKGNELTFLDDPSCTGTFSGNQVNLTIQGLRAADTGLYICKVELMYPPPYYLGIGNGTQIYVIDPEPCPDSDERKCCVECPPCPAPPVAGPSVFLFPPKPKDTLMISRTPEVTCVVVDVSHEDPEVQFNWYVDGVEVHNAKTKPREEQFNSTFRVVSVLTVVHQDWLNGKEYKCKVSNKGLPAPIEKTISKTKGQPREPQVYTLPPSREEMTKNQVSLTCLVKGFYPSDIAVEWESNGQPENNYKTTPPMLDSDGSFFLYSKLTVDKSRWQQGNVFSCSVMHEALHNHYTQKSLSLSPG ?
Solution: 0.131 to 0.262 nM

Problem: What do we get for D3-32-IgG2 (Fc fusion) MHVAQPAVVLASSRGIASFVCEYESPGKANEIRVTVLRKADSQVTEVCAMTYMKGDELTFLDDPSCTGTFSGNQVNLTIQGLRAADTGLYICKVELMYPPPYYLGIGNGTQIYVIDPEPCPDSDERKCCVECPPCPAPPVAGPSVFLFPPKPKDTLMISRTPEVTCVVVDVSHEDPEVQFNWYVDGVEVHNAKTKPREEQFNSTFRVVSVLTVVHQDWLNGKEYKCKVSNKGLPAPIEKTISKTKGQPREPQVYTLPPSREEMTKNQVSLTCLVKGFYPSDIAVEWESNGQPENNYKTTPPMLDSDGSFFLYSKLTVDKSRWQQGNVFSCSVMHEALHNHYTQKSLSLSPG ?
Solution: < 0.131 nM

Problem: What do we get for D3-5-IgG2 (Fc fusion) MHVAQPAVVLASSRGIASFVCEYESPGKANEIRVTVLRQAGSQVTEVCAATYMKGDELTFLDDPSCTGTFSGNQVNLTIQGLRAADTGLYICKVELMYPPPYYLGFGNGTQIYVIDPEPCPDSDERKCCVECPPCPAPPVAGPSVFLFPPKPKDTLMISRTPEVTCVVVDVSHEDPEVQFNWYVDGVEVHNAKTKPREEQFNSTFRVVSVLTVVHQDWLNGKEYKCKVSNKGLPAPIEKTISKTKGQPREPQVYTLPPSREEMTKNQVSLTCLVKGFYPSDIAVEWESNGQPENNYKTTPPMLDSDGSFFLYSKLTVDKSRWQQGNVFSCSVMHEALHNHYTQKSLSLSPG ?
Solution: 0.131 to 0.262 nM

Problem: What do we get for D3-4-IgG2 (Fc fusion, also called D3-04-IgG2) MHVAQPAVVLASSRGIASFVCEYESPGKANEIRVTVLRQADSQVTEVCAMTYMKGDELTFLDDPSCTGTFSGNQVNLTIQGLRAADTGLYICKVELMYPPPYYLGFGNGTQIYVIDPEPCPDSDERKCCVECPPCPAPPVAGPSVFLFPPKPKDTLMISRTPEVTCVVVDVSHEDPEVQFNWYVDGVEVHNAKTKPREEQFNSTFRVVSVLTVVHQDWLNGKEYKCKVSNKGLPAPIEKTISKTKGQPREPQVYTLPPSREEMTKNQVSLTCLVKGFYPSDIAVEWESNGQPENNYKTTPPMLDSDGSFFLYSKLTVDKSRWQQGNVFSCSVMHEALHNHYTQKSLSLSPG ?
Solution: < 0.131 nM

Problem: What do we get for D3-22-IgG2 (Fc fusion) MHVAQPAVVLASSRGIASFVCEYESPGKANEIRVTVLRQAGSQVTEVCAMTYMKGNELTFLDDPSCTGTFSGNQVNLTIQGLRAMDTGLYICKVELMYPPPYYLGIGNGTQIYVIDPEPCPDSDERKCCVECPPCPAPPVAGPSVFLFPPKPKDTLMISRTPEVTCVVVDVSHEDPEVQFNWYVDGVEVHNAKTKPREEQFNSTFRVVSVLTVVHQDWLNGKEYKCKVSNKGLPAPIEKTISKTKGQPREPQVYTLPPSREEMTKNQVSLTCLVKGFYPSDIAVEWESNGQPENNYKTTPPMLDSDGSFFLYSKLTVDKSRWQQGNVFSCSVMHEALHNHYTQKSLSLSPG ?
Solution: 0.131 to 0.262 nM

Problem: What do we get for D3-69-IgG2 (Fc fusion) MHVAQPAVVLASSRGIASFVCEYESPGKANEIRVTVLRQADSQVTEVCAMTYMKGDELTFLDDPSCTGTFSGNQVNLTIQGLRAMDTGLYICKVELMYPPPYYEGIGNGTQIYVIDPEPCPDSDERKCCVECPPCPAPPVAGPSVFLFPPKPKDTLMISRTPEVTCVVVDVSHEDPEVQFNWYVDGVEVHNAKTKPREEQFNSTFRVVSVLTVVHQDWLNGKEYKCKVSNKGLPAPIEKTISKTKGQPREPQVYTLPPSREEMTKNQVSLTCLVKGFYPSDIAVEWESNGQPENNYKTTPPMLDSDGSFFLYSKLTVDKSRWQQGNVFSCSVMHEALHNHYTQKSLSLSPG ?
Solution: < 0.131 nM
